# tgt: T1, C5a receptor (C5aR) expressed on the surface of human PMNs (human, UniProt P21730 1-350)
# T1 construct: whole, on cells; Endogenous receptor on intact human polymorphonuclear cells; also called C5aRs
# T1 sequence (looked up): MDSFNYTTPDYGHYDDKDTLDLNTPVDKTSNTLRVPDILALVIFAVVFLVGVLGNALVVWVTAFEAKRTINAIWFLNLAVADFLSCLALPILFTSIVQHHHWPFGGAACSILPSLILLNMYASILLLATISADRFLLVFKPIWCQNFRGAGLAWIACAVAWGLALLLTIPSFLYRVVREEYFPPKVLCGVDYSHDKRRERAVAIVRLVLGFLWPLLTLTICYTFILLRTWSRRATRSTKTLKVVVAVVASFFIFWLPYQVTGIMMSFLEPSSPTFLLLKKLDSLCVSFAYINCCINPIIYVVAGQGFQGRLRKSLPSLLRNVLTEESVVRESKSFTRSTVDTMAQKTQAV
# protocolSummary: competition with 125I-C5a on intact human PMNs (column headed EC50; 50% inhibition of 125I-C5a binding)
pIC50: −log10 of the molar value. Where no end group is shown, it is not given here. [ ]: non-standard residue; d: D form.
Below, each entry is listed alongside its reported pIC50.
measurementLabel: pIC50

[
  {
    "binder": "natural C5a (ligand, UniProt P01031 678-751, looked up, 125I label on the tracer form used in the competition assay, C5a is only a fragment of it) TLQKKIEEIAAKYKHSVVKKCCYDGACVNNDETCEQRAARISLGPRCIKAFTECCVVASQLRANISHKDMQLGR",
    "measurementLabel": "pIC50",
    "reportedMeasurement": 9.40
  },
  {
    "binder": "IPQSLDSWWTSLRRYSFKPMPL[dA]RG (Synthetic peptide)",
    "measurementLabel": "pIC50",
    "reportedMeasurement": 4.77
  },
  {
    "binder": "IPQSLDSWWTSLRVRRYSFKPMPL[dA]R (Synthetic peptide; also called RVRR-containing construct) [IPQSLDSWWTSLRVRRYSFKPMPLaR (RVRR furin-sensitive-linked C5a-active construct)]",
    "measurementLabel": "pIC50",
    "reportedMeasurement": 6.28
  }
]

Data origin, for the record: patent US20070031445A1
